target.desc: Human immunodeficiency virus type 1 protease (Human immunodeficiency virus 1, UniProt Q72874, Q7K)
measurement.protocol: Inhibition of HIV1 protease Q7K mutant by FRET method
experimental.setup: read-out: Ki
reported.metric: Ki (µM)
Provide only the numeric value, understood in µM.

Sure, the documented Ki for `C[C@H](O)CN(C[C@@H](O)[C@H](Cc1ccccc1)NC(=O)C[C@H]1C=CCC1)S(=O)(=O)c1ccco1` is 0.259

The reported Ki of the compound `CC[C@H](O)CC(=O)N[C@@H](Cc1ccccc1)[C@H](O)CN(CC(C)C)S(=O)(=O)c1ccc2ncsc2c1` was 0.000134

Consider `CC(C)CN(C[C@@H](O)[C@H](Cc1ccccc1)NC(=O)C1(C(N)=O)CC1)S(=O)(=O)c1ccc2ncsc2c1` . Its measured Ki is 0.000115

Data point: `COc1cccc(S(=O)(=O)N(C[C@@H](O)[C@H](Cc2ccccc2)NC(=O)c2cccc(C)n2)C[C@@H](C)O)c1` ; Ki = 12.2

###

target.desc: Human immunodeficiency virus type 1 protease (Human immunodeficiency virus 1, UniProt Q72874, Q7K)
measurement.protocol: Inhibition of HIV1 protease Q7K mutant by FRET method
experimental.setup: read-out: pKi (converted)
Note to self: Ki under 2 nM means 1, ties and anything higher get 0.

Does the reported Ki of `COc1ccc(S(=O)(=O)N(CC(C)C)C[C@@H](O)[C@H](Cc2ccccc2)NC(=O)/C=C(\C)C(F)(F)F)cc1` stay below 2 nM? 1

Dear reviewer, please state whether `CCCCCN(C[C@@H](O)[C@H](Cc1ccccc1)NC(=O)c1cccc(O)c1)S(=O)(=O)c1ccc2ncsc2c1` has Ki strictly beneath 2 nM. 1

Does the reported Ki of the following compound sit strictly below 2 nM? `CC(C)CN(C[C@@H](O)[C@H](Cc1ccccc1)NC(=O)C1(C(N)=O)CC1)S(=O)(=O)c1ccc2ncsc2c1` 1

Does the reported Ki of the following compound sit strictly below 2 nM? `C/C(=C\C(=O)N(C)[C@@H](Cc1ccccc1)[C@H](O)CN(Cc1cccs1)S(=O)(=O)c1cc(F)c(F)cc1F)C(F)(F)F` 0

API: query returns whether the compound falls strictly under 2 nM in Ki. Query: `CC[C@H](O)CC(=O)N[C@@H](Cc1ccccc1)[C@H](O)CN(CC(C)C)S(=O)(=O)c1ccc(OC)cc1` 1

Dear reviewer, please state whether `COc1cccc(S(=O)(=O)N(C[C@@H](O)[C@H](Cc2ccccc2)NC(=O)c2cccc(C)n2)C[C@@H](C)O)c1` has Ki strictly beneath 2 nM. 0

A record lists `COc1cccc(S(=O)(=O)N(C[C@H]2CCCO2)C[C@@H](O)[C@H](Cc2ccccc2)NC(=O)[C@@H]2CN(c3cccc(F)c3)C(=O)O2)c1` . Is its Ki below 2 nM? 0

Is the reported Ki for `COc1ccc(S(=O)(=O)N(CC(C)C)C[C@@H](O)[C@H](Cc2ccccc2)NC(=O)[C@@H](O)C(C)C)cc1` strictly below 2 nM? 1

Given `CCCCCN(C[C@@H](O)[C@H](Cc1ccccc1)NC(=O)C[C@@H](O)CC)S(=O)(=O)c1ccc(OC)cc1` , is recorded Ki strictly lower than 2 nM? 1

Report whether reported Ki is lower than 2 nM (strictly) for `CC(C)CN(C[C@@H](O)[C@H](Cc1ccccc1)NC(=O)[C@@H](O)C(C)C)S(=O)(=O)c1ccc2ncsc2c1` 1

Here's an entry: `CC[C@@H](C)CN(C[C@@H](O)[C@H](Cc1ccccc1)NC(=O)c1cccc(O)c1)S(=O)(=O)c1ccc(OC)cc1` . Is its Ki below 2 nM? 1

Strictly below 2 nM: is that where Ki of `CNC(=O)CCC(=O)N[C@@H](Cc1ccccc1)[C@H](O)CN(C[C@H](C)O)S(=O)(=O)c1ccco1` sits? 0

hey, is Ki for `CCCCCN(C[C@@H](O)[C@H](Cc1ccccc1)NC(=O)C1(C(N)=O)CC1)S(=O)(=O)c1ccc(OC)cc1` lower than 2 nM or not? 1

Field: below-cutoff. Rule: recorded Ki strictly less than 2 nM. Subject: `Cc1cccc(OS(=O)(=O)N(CC2CC2)C[C@@H](O)[C@H](Cc2ccccc2)NC(=O)C[C@H]2C=CCC2)c1` 0

Consider `CC[C@H](C)CN(C[C@@H](O)[C@H](Cc1ccccc1)NC(=O)[C@@H]1CN(c2cccc(C(C)=O)c2)C(=O)O1)S(=O)(=O)c1ccc(OC)cc1` . Does its Ki lie strictly below 2 nM? 1

Hello, is Ki of the following compound strictly smaller than 2 nM? `CC[C@@H](C)CN(C[C@@H](O)[C@H](Cc1ccccc1)NC(=O)C[C@@H](O)CC)S(=O)(=O)c1ccc2ncsc2c1` 1

Given `CC[C@@H](C)CN(C[C@@H](O)[C@H](Cc1ccccc1)NC(=O)[C@@H](NC(C)=O)C(C)C)S(=O)(=O)c1ccc(OC)cc1` , is recorded Ki strictly lower than 2 nM? 1

Could you please tell me whether Ki recorded for Cc1oncc1S(=O)(=O)N(Cc1cccs1)C[C@@H](O)[C@H](Cc1ccccc1)NC(=O)/C=C/C(C)C(F)(F)F (some centres undefined) is less than 2 nM? 0

Strictly below 2 nM: is that where Ki of `CC(=O)/C=C/C(=O)N[C@@H](Cc1ccccc1)[C@H](O)CN(Cc1cccs1)S(=O)(=O)c1cc(F)c(F)cc1F` sits? 0

# TODO verify Ki < 2 nM strictly for this compound: `CC[C@H](O)CC(=O)N[C@@H](Cc1ccccc1)[C@H](O)CN(CC(C)C)S(=O)(=O)c1ccc2ncsc2c1` 1

I wonder whether `CCCCCN(C[C@@H](O)[C@H](Cc1ccccc1)NC(=O)[C@@H](O)C(C)C)S(=O)(=O)c1ccc2ncsc2c1` has Ki below 2 nM. Can you tell? 1

# strict comparison: is reported Ki < 2 nM? input = `COc1ccc(S(=O)(=O)N(CC(C)C)C[C@@H](O)[C@H](Cc2ccccc2)NC(=O)C2(C(N)=O)CC2)cc1` 1

Is Ki of `CC[C@@H](C)CN(C[C@@H](O)[C@H](Cc1ccccc1)NC(=O)[C@@H](NC(C)=O)C(C)C)S(=O)(=O)c1ccc2ncsc2c1` strictly below 2 nM? 1

# check: Ki < 2 nM for `COc1cccc(S(=O)(=O)N(CC2CC2)C[C@@H](O)[C@H](Cc2ccccc2)NC(=O)c2cccc(C)n2)c1` 0

Check if Ki falls below 2 nM for `C[C@H](O)CN(C[C@@H](O)[C@H](Cc1ccccc1)NC(=O)C[C@H]1C=CCC1)S(=O)(=O)c1ccco1` . 0

Decide: Ki of `CC[C@H](C)CN(C[C@@H](O)[C@H](Cc1ccccc1)NC(=O)c1ccc(O)c(O)c1)S(=O)(=O)c1ccc(OC)cc1` strictly below 2 nM? 1

Identify whether the compound `COc1ccc(S(=O)(=O)N(CC(C)C)C[C@@H](O)[C@H](Cc2ccccc2)NC(=O)c2cccc(O)c2)cc1` records Ki below 2 nM. 1

I'd appreciate it if you could check whether `O=C(N[C@@H](Cc1ccccc1)[C@H](O)CN(Cc1cccs1)S(=O)(=O)c1cc(F)c(F)cc1F)c1ccnnc1` has Ki smaller than 2 nM. 0

Ki under 2 nM? Item: `COc1cccc(S(=O)(=O)N(Cc2cccs2)C[C@@H](O)[C@H](Cc2ccccc2)Nc2cc(F)c(F)c(O)c2F)c1` 0
